- Tested on: UACC-62 melanoma
- Experimental Details: NCI tumour cell line growth inhibition, 48 h
Readout: TGI

| Compound | Measured On | Readout | Measured |
| --- | --- | --- | --- |
| CCn1c2ccccc2c2ccc3c(c21)C(=O)c1ccccc1C3=O | UACC-62 melanoma | TGI | > 100 µM |
| O=c1c(Sc2c(O)c3ccccc3c3ccccc3c2=O)c(O)c2ccccc2c2ccccc12 | UACC-62 melanoma | TGI | > 100 µM |
| O=c1c2cc(Br)ccc2nc(-c2ccccc2Cl)n1NCC1(O)OCC(O)C(O)C1O (stereo unspecified) | UACC-62 melanoma | TGI | > 100 µM |
| Nc1ccc2nc3ccc(N)cc3[n+](-c3ccccc3)c2c1 | UACC-62 melanoma | TGI | > 100 µM |
| CN(C)CCCNc1ncnc2nc[nH]c12 | UACC-62 melanoma | TGI | > 100 µM |
| COc1c(OC)c(N)c2cc(C)c(=O)c(C)cc2c1N | UACC-62 melanoma | TGI | > 100 µM |
| C#CCOCn1ccc(=O)[nH]c1=O | UACC-62 melanoma | TGI | > 100 µM |
| COc1cc2c3c(n(CCCNCC(OC)OC)c(=O)c2cc1OC)-c1cc2c(cc1C3=O)OCO2 | UACC-62 melanoma | TGI | 22.6 µM |
| C/C([O-])=C1\Cc2ccccc2C1=O.C/C([O-])=C1\Cc2ccccc2C1=O.CC[O-].CC[O-].[Ti+4] | UACC-62 melanoma | TGI | 31.6 µM |
| C/C(=C\c1ccn(-c2ccc(N)c(F)c2)n1)[C@@H]1C[C@@H]2O[C@]2(C)CCC[C@H](C)[C@H](O)[C@@H](C)C(=O)C(C)(C)[C@@H](O)CC(=O)O1 | UACC-62 melanoma | TGI | > 50 µM |
| O=Cc1cn(Cc2cccc(Cl)c2)c2ccccc12 | UACC-62 melanoma | TGI | 6.45 µM |
| C=C1CC2(C[C@@H](c3ccccc3)O[C@@H](c3ccccc3)C2)OC1=O (stereo partly specified) | UACC-62 melanoma | TGI | 7.7 µM |
| CC(=O)Oc1ccc2c(C)cc(=O)oc2c1 | UACC-62 melanoma | TGI | > 100 µM |
| CC1=C(O)C(=O)C[C@]2(C)[C@H]3CC=C4[C@@H]5CC(C)(C)CC[C@@H]5C(=O)[C@H](O)[C@@]4(C)[C@]3(C)CC[C@@H]12 | UACC-62 melanoma | TGI | > 50 µM |
| Cc1cnc(/N=c2\sc(C)cn2-c2ncc(C)s2)s1 | UACC-62 melanoma | TGI | > 100 µM |
| C(=Nc1ccc(-c2cc(-c3ccccc3)nc3ccc4ccccc4c23)cc1)c1ccccc1 | UACC-62 melanoma | TGI | 62.1 µM |
| C/C(=N\NC(=S)NC1CCCC1)c1ccccn1 | UACC-62 melanoma | TGI | 7.8 µM |
| CCCCCCCCC(=O)N(C)C1C2CN3CCC(O2)C13 (stereo unspecified) | UACC-62 melanoma | TGI | > 100 µM |
| CC1=CCC(OC(=O)C(C)(C)CCC(O)(C(=O)OC2(C(C)C)CCC3(C)OC3C2)C(C)C)(C(C)C)CC1 (stereo unspecified) | UACC-62 melanoma | TGI | 1.11 µM |
| CS/C(=N\C(=S)Nc1ccccc1)Nc1ccccc1 | UACC-62 melanoma | TGI | 53.6 µM |
| CCOC(=O)c1sc2nc(SC)nc3c2c1NCN3c1ccc2c(c1)OCCCO2 | UACC-62 melanoma | TGI | > 100 µM |
